experiment: Folding and unfolding kinetics (Chevron plot, stopped-flow CD, GuHCl); type: physicochemical; conditions: slope of ln(kf) vs GuHCl

MOLECULE	ENDPOINT UNIT	mf
SYM5/ΔΔ: SYM5 FGF-1 mutant plus both Δ104-106 and Δ120-122 deletion mutations (protein, UniProt P05230 16-155, looked up, variant L44F L73V V109L L111I C117V A103G del104-106 R119G del120-122) Fibroblast growth factor 1: FNLPPGNYKKPKLLYCSNGGHFLRILPDGTVDGTRDRSDQHIQFQLSAESVGEVYIKSTETGQYLAMDTDGLVYGSQTPNEECLFLERLEENHYNTYISKKHGWFLGIKKNGSVKGTHYGQKAILFLPLPVSSD	M⁻¹	-4.57
